All figures here come from patent US20110142868A1.

# TARGET DESC: human N(G),N(G)-dimethyl-L-arginine dimethylaminohydrolase isotype 1 (human, UniProt O94760 1-285)
# Sequence (O94760 whole entry): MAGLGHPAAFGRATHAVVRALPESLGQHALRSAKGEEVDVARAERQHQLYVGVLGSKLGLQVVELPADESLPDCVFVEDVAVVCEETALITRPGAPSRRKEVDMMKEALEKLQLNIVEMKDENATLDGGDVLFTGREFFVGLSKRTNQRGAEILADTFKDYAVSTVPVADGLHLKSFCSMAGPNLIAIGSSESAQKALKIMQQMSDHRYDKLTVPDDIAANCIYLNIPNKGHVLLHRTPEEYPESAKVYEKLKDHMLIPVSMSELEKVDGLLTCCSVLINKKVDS
# EXPERIMENTAL DETAILS: cell-based or functional assay
Numbered stars: 1 amine (or outer) side, 2 acyl side, 3 side chain; on linkers, the order of the positions; unused ones are H or OH. Square brackets hold non-standard residues; d marks the D form. Ends that are not written are not given here. * marks the point of attachment. O(CA) = ornithine chloroamidine, N=C(CCl)NCCC[C@H](N[*:1])C(=O)[*:2]; Orn(fluoroacetimidoyl) = N=C(CF)NCCC[C@H](N)C(=O)O; Moc = COC(=O)*
MEASURED METRIC: IC50 values (µM), hDDAH-1 activity assay

>  <BINDER>
Moc-TD[Orn(fluoroacetimidoyl)]GS-OMe (SMILES COC(=O)N[C@H](C(=O)N[C@@H](CC(=O)O)C(=O)N[C@@H](CCCNC(=N)CF)C(=O)NCC(=O)N[C@@H](CO)C(=O)OC)[C@@H](C)O) [CXP5-101]

>  <MEASURED METRIC>
IC50 values (µM), hDDAH-1 activity assay

>  <UNIT NAME>
µM

>  <LIMIT SIGN>
>

>  <RESULT NUMBER>
2000

$$$$
>  <BINDER>
Ac-KFD[Orn(fluoroacetimidoyl)]DFI-NH2 (SMILES CC[C@H](C)[C@H](NC(=O)[C@H](Cc1ccccc1)NC(=O)[C@H](CC(=O)O)NC(=O)[C@H](CCCNC(=N)CF)NC(=O)[C@H](CC(=O)O)NC(=O)[C@H](Cc1ccccc1)NC(=O)[C@H](CCCCN)NC(C)=O)C(N)=O) [0743-58FA]

>  <MEASURED METRIC>
IC50 values (µM), hDDAH-1 activity assay

>  <UNIT NAME>
µM

>  <LIMIT SIGN>
>

>  <RESULT NUMBER>
2000

$$$$
>  <BINDER>
Ac-YD[O(CA)]GS [CXP5.2-081]

>  <MEASURED METRIC>
IC50 values (µM), hDDAH-1 activity assay

>  <UNIT NAME>
µM

>  <LIMIT SIGN>
=

>  <RESULT NUMBER>
1330

$$$$
>  <BINDER>
Ac-GD[O(CA)]GS [CXP5.2-078]

>  <MEASURED METRIC>
IC50 values (µM), hDDAH-1 activity assay

>  <UNIT NAME>
µM

>  <LIMIT SIGN>
=

>  <RESULT NUMBER>
1200

$$$$
